Below, each of the binders is paired with its reported EC50 value.
# target_system: human RON (recepteur d'origine nantais, MST1R), full length, expressed on cells (UniProt Q04912 25-1400)
# Sequence (Q04912 25-1400): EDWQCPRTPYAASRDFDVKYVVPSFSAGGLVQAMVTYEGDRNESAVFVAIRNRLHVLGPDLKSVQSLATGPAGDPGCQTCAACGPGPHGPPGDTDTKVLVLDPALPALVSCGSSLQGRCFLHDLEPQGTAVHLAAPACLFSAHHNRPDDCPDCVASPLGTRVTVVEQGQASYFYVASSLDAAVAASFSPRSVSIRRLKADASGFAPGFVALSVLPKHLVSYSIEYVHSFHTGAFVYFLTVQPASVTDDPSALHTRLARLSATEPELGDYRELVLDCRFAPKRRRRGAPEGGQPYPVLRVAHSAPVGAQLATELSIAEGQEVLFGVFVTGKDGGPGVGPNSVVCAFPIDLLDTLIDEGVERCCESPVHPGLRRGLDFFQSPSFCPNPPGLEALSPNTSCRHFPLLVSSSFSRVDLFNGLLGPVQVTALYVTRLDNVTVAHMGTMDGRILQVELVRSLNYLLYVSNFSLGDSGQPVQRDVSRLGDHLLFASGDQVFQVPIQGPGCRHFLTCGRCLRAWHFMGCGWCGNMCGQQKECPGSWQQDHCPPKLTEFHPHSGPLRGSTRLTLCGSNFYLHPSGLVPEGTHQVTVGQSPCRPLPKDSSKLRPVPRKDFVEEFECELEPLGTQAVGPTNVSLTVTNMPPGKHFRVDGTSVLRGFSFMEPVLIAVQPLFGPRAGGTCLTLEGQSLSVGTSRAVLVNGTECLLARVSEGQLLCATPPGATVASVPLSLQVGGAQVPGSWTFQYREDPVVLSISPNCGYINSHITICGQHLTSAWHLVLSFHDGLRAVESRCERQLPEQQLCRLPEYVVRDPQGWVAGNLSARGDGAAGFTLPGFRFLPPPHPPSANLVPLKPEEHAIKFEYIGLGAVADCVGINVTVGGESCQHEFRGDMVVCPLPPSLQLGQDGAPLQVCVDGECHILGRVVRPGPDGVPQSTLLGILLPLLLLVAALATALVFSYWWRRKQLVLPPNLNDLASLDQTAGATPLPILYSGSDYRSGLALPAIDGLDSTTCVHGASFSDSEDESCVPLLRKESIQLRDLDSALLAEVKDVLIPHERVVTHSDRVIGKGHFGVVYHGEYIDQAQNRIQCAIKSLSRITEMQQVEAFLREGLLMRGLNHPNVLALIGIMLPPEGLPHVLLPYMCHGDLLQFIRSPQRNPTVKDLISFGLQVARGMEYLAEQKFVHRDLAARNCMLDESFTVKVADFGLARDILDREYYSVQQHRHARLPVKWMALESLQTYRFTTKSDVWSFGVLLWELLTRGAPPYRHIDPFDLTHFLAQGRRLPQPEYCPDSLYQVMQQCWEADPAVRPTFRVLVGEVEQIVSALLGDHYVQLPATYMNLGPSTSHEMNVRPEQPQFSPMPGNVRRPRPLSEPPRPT
# assay_explanation: FACS
Write down the numeric answer in µg/mL and omit the unit.

// solved cases for EC50 follow
INSERT INTO measurements (binder, endpoint_label, result_value) VALUES
  ('1P3B2 murine monoclonal anti-RON antibody (antibody, V domains shown) VH: EVQLQQSGPELEKPGASVKISCKASGYSFTGYNMNWVKQSNGESLEWIGDIDPYYGGTRYNQKFKGKATLTVDKSSSTAYMQLKSLTSEDSAVYYCAREGRGFAYWGQGTLVTVSA VL: DIQMTQSPASLSASVGETVTITCRASENIYSYLAWYQKKQGKSPQLLVYNAKTSVEGVPSRFSGSGSGIQFSLKINSLQPEDFGSYYCHCQHHYGTLPTFGGGTKLEIK', 'EC50', 0.006),
  ('1P4A3 murine monoclonal anti-RON antibody (antibody, V domains shown) VH: EVQLQQSGPELEKPGASVMISCKASGYSFTGYNMNWVKQSTGKSLEWIGDIDPYYDGTRYNQKFKGKATLTADKSSSTAYMQLKSLTSEDSAVYYCTREGRGFAYWGQGTLVTVSA VL: DIQMTQSPASLSASVGETVTITCRASENIYSYLAWYQQKQGKSPQLLVYNAKTLAGGVPSRFSGSGSGTQFSLKINSLQPEDFGSYYCQHYYGTPLTFGAGTKLELK', 'EC50', 0.011);

Turning now to a further record.
Task item: Which EC50 reading was recorded for the binder 1P5B10 murine monoclonal anti-RON antibody (antibody, V domains shown) VH: EVQLQQSGPELVKPGASMKISCRAAGFSFTGYTMNWVKQSHGKSLEWIGLINLNNGGTSHNQKFKGKATLTVDKSSSTAYMELLSLTSEDSAVYYCARWLRRGGYAMDYWGQGISVTVSS VL: DILLTQSPAILSVSPGERVSFSCRASQNIGTSIHWYQQRTNGSPRLLIKYASESISGIPSRFSGSGSGTDFTLSINSVESEDIADYYCQQSDSWPLTFGAGTKLELK ?
Reply: 0.051
